# credit: patent US20210054078A1

Target: T1, human PD-L1 on hPD-L1/CHO-K1 overexpressing cells (human, UniProt Q9NZQ7 19-290)
T1 construct: whole, on cells; also called human PD-L1-expressing cells
T1 sequence (Q9NZQ7 19-290): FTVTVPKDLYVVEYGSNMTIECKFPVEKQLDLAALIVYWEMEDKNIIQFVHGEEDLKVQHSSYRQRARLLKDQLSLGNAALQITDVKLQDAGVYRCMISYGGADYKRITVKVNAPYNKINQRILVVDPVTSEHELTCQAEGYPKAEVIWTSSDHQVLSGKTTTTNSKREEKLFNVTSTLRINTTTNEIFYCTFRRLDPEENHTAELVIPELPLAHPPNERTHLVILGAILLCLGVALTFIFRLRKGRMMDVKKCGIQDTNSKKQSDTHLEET
Assay: flow cytometry on hPD-L1/CHO-K1 cells (sheet label hPD-1/CHO-K1)
Consider the following binders; for each one, report its % Gated in M1.
Numbers only, in %.

# annotated cases, reported % Gated in M1 shown
ME4.B12 anti-PD-L1 antibody (IgG form) (antibody, V domains shown) VH: QVQLVESGAEVKKPGSSVKVSCKASGGTFNNYAVSWVRQAPGQGLEWMGRIIPILGIANYAQTFQGRVTITADKSTTTAYMELSSLRSEDTAVYYCARSSFGYSVGAFDIWGQGTMVTVSS VL: QFVLTQPPSVSGAPGQRVTISCTGSSSNIGAGYDVHWYQQLPGTAPKVLIYGNSDRPSGVPDRFSGSKSGTSASLAITGLQGEDKATYYCQSYDSRLSGPVFGTGTKVTVLG: 81.6
ME4.B10 anti-PD-L1 antibody (IgG form) (antibody, V domains shown) VH: QVQLVESGAEVKKPGSSVKVSCKASGGTFNNYAVSWVRQAPGQGLEWMGRIIPILGIANYAQTFQGRVTITADKSTTTAYMELSSLRSEDTAVYYCARSARGYAHGAFDIWGQGTMVTVSS VL: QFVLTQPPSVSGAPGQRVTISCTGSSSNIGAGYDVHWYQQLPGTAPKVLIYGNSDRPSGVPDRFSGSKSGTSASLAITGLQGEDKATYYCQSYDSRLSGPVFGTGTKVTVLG: 50.3
ME4.A2 anti-PD-L1 antibody (IgG form) (antibody, V domains shown) VH: QVQLVESGAEVKKPGSSVKVSCKASGGTFNNYAVSWVRQAPGQGLEWMGRIIPILGIANYAQTFQGRVTITADKSTTTAYMELSSLRSEDTAVYYCARSSRGYAHGAFDIWGQGTMVTVSS VL: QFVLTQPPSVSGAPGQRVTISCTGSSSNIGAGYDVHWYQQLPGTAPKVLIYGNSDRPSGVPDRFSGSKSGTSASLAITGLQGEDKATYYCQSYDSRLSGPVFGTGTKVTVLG: 72.4
ME4.A11 anti-PD-L1 antibody (IgG form) (antibody, V domains shown) VH: QVQLVESGAEVKKPGSSVKVSCKASGGTFNNYAVSWVRQAPGQGLEWMGRIIPILGIANYAQTFQGRVTITADKSTTTAYMELSSLRSEDTAVYYCARSRGGYAHGAFDIWGQGTMVTVSS VL: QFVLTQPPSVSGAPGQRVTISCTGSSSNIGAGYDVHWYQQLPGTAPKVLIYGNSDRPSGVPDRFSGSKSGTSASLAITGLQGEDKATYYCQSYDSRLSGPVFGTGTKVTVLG: 52.6
ME4.A12 anti-PD-L1 antibody (IgG form) (antibody, V domains shown) VH: QVQLVESGAEVKKPGSSVKVSCKASGGTFNNYAVSWVRQAPGQGLEWMGRIIPILGIANYAQTFQGRVTITADKSTTTAYMELSSLRSEDTAVYYCARSHWGYAHGAFDIWGQGTMVTVSS VL: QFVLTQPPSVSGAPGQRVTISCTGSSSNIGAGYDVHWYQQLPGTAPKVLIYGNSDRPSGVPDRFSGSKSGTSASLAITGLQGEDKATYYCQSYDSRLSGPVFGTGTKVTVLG: 44.6

binder ME4 anti-PD-L1 antibody (IgG form) (antibody, V domains shown, Converted to IgG with the vectors pIgGHD-6A6Hvy and pIgGLD-6A6Lgt; Expressed in Expi293F cells) VH: QVQLVESGAEVKKPGSSVKVSCKASGGTFNNYAVSWVRQAPGQGLEWMGRIIPILGIANYAQTFQGRVTITADKSTTTAYMELSSLRSEDTAVYYCARSYSGYAEGAFDIWGQGTMVTVSS VL: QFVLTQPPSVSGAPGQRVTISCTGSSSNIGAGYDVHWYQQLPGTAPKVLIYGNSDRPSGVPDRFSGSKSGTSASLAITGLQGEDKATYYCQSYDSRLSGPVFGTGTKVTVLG , % Gated in M1 observed: 83.2
